test-summary: Half-life period in rat at 10 mg/kg
Assay type: ADME, organism-based
Parameters: dose 10 mg/kg
test-context: in vivo
value-type: half-life (h)

| entry-smiles | unit-string | value |
| --- | --- | --- |
| CS(=O)(=O)c1ccc(-c2oc3ccc(F)cc3c(=O)c2-c2cccnc2)cc1 | h | 7.4 |

---

test-summary: Tmax in rat at 10 mg/kg
Type: ADME, organism-based
Parameters: dose 10 mg/kg
test-context: in vivo
value-type: Tmax (h)

| entry-smiles | unit-string | value |
| --- | --- | --- |
| CS(=O)(=O)c1ccc(-c2oc3ccc(F)cc3c(=O)c2-c2cccnc2)cc1 | h | 5 |

---

system-under-test: Prostaglandin G/H synthase 2 (Mus musculus, UniProt Q05769)
Sequence (Q05769 whole entry): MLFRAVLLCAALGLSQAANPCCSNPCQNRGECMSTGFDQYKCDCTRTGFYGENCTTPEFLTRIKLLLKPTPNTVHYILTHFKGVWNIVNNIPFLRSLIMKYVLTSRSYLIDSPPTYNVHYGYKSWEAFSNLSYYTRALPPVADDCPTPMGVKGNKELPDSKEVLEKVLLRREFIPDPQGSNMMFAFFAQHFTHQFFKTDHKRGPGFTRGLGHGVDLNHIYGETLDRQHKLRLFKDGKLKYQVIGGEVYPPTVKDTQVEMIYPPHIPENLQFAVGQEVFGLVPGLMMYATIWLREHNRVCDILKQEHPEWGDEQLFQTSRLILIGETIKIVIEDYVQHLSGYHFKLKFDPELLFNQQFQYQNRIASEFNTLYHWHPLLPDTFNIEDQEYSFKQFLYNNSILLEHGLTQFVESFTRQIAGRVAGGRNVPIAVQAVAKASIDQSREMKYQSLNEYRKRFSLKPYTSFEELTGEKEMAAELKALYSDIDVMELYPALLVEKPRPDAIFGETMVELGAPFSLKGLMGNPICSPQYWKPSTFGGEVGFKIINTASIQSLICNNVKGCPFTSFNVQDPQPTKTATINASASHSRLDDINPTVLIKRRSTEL
log10(IC50) values, listed per item
value-type: log10(IC50) (log10 of the value in µM)

| entry-smiles | log10(IC50) |
| --- | --- |
| CS(=O)(=O)c1ccc(-c2oc3ccccc3c(=S)c2-c2ccc(F)cc2)cc1 | -1.14 |
| COc1ccc(-c2c(-c3ccc(S(C)(=O)=O)cc3)oc3ccccc3c2=O)cc1 | -0.29 |
| CS(=O)(=O)c1ccc(-c2oc3ccccc3c(=O)c2-c2ccccc2F)cc1 | -1.12 |
| CSc1ccc(-c2c(-c3ccc(S(N)(=O)=O)cc3)oc3ccccc3c2=O)cc1 | -0.55 |
| COc1ccc(-c2c(-c3ccc(S(C)(=O)=O)cc3)oc3ccccc3c2=O)cn1 | 0.36 |
| NS(=O)(=O)c1ccc(-c2oc3ccccc3c(=O)c2-c2ccc(F)cc2)cc1 | -0.90 |
| CS(=O)(=O)c1ccc(-c2oc3ccccc3c(=O)c2-c2ccc(Cl)c(Cl)c2)cc1 | -0.57 |
| CS(=O)(=O)c1ccc(-c2oc3ccccc3c(=O)c2-c2ccc(F)cc2)cc1 | -0.69 |
| CS(=O)(=O)c1ccc(-c2oc3ccccc3c(=S)c2-c2ccccc2F)cc1 | -0.71 |
| CS(=O)(=O)c1ccc(-c2oc3ccccc3c(=O)c2-c2ccc(Cl)cc2Cl)cc1 | -0.44 |
| CS(=O)(=O)c1ccc(-c2oc3ccc(F)cc3c(=O)c2-c2cccnc2)cc1 | 0.10 |
| COc1ccc(-c2c(-c3ccc(S(C)(=O)=O)cc3)oc3ccccc3c2=S)cc1 | -0.85 |
